protocolSummary: soluble on expression in E. coli; label from the status in PepcDB or PDB records
metric: soluble on expression in E. coli

>  <residueCodes>
MFKFLMIISMSKHIKRAAKNREDLLEAAVEMFKTHGMMVPLQVIIDHANVGRATFYRNFADRKMLVYALLEQSLVKLKQRTQLYQTYPDGLIRLIQSHVNHLNHLSALMEYWRVLDYSDTSLQALIQQHQRIIQPLIDQAILHKVCRPDFNFEDYRSIVTMLSSSFRGHTEQEQIRMASRVIDLLLNGICLNQEESHG

>  <metric>
soluble on expression in E. coli

>  <resultValue>
not soluble

$$$$
>  <residueCodes>
MNTKCLREKIEKIKPHLLKTASDTLQGYVFGCMIGVFSSSEKPSLRHVHESGKSFAKVSMIYSTTESALQLYGSKNAPLNSLISGAVAGGLGVNDRSKKSILTGAASFGLYTGMSNIFSVQGQK

>  <metric>
soluble on expression in E. coli

>  <resultValue>
not soluble

$$$$
>  <residueCodes>
MNYYSEKIEVVKLADQVAAKLQQLIGSGEYKKGDKIPTEPELMARFGVGRSTVRESVRILANAGLLSVLQGKGTFVQDTTVVAEPLHQRLRRANNKELNEVRHMLEITMVQKAAENRTEKEVKQMRTLLNQRRRAIEEQLQDECLNADIAFHVVIAEASKNQVLIDLYKTFSKVISEYFQTEYPDTKAYKRSQALHEKLCDAIATKESKKAAEYMSQILSLD

>  <metric>
soluble on expression in E. coli

>  <resultValue>
not soluble

$$$$
